Origin of values: patent US20140120095A1

- target-or-system: T1, recombinant human DLL4 (human, UniProt Q9NR61 25-522)
- T1 construct: also called rhDLL4; hDLL4
- T1 sequence (Q9NR61 25-522): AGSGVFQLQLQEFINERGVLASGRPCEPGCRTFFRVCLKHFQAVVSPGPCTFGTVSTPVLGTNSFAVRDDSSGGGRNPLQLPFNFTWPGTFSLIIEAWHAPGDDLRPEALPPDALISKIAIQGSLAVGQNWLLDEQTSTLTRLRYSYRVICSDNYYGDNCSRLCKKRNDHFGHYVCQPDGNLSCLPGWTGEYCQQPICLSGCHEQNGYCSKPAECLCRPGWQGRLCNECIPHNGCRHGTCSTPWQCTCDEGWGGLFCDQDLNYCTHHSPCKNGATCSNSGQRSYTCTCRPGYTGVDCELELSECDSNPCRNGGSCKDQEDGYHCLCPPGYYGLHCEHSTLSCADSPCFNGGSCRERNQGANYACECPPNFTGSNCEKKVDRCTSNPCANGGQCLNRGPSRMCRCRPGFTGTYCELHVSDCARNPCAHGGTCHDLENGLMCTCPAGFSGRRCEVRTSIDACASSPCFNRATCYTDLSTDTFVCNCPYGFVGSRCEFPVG
- test-name: binding ELISA, coated rhDLL4
quantity-kind: EC50 (nM)
// return numeric value only (unit: nM, not printed)

Please review the following examples before continuing.
binder	quantity-kind	value
DLLBII08C11 (VHH, also called DLLBII8C11) VHH: EVQLVESGGGLVQAGGSLRLSCAASGFTFDDYAIGWFRQAPGKEREGVSCISSHDRTTYYADSVKGRFTISSDNAKNTVYLQMNSLKPEDTAVYYCAADPLVCGYNDPRLADYWGQGTQVTVSS	EC50	1.1
DLLBII56A09 (VHH, also called 56A9; DLLBII56A9) VHH: EVQLVESGGGLVQPGGSLRLSCAASGFTFDDYAIGWFRQAPGKEPEGISCISSSGGITYYADSVKGRFTTSRDNAKNTVYLQMNSLKPEDTAVYYCATPGIAACRGIHYTGQGTQVTVSS	EC50	3.6
DLLBII115A05 (VHH, also called 115A5; DLLBII115A5) VHH: EVQLVESGGGLVQPGGSLRLSCAASGFTFGSYDMSWVRRSPGKGPEWVSSINSGGGSTYYADFVKGRFTISRDNAKNTLYLQMNSLKPEDTAVYYCAADRYIRARQGDYWGAYEYDYWGQGTQVTVSS	EC50	5

Below: the item to evaluate.
Exam item: Consider the binder DLLBII6B11 (VHH, also called DLLBII06B1) VHH: EVQLVESEGGLVQAGGSLRLSCAASGSTFSSYAMGWYRQAPGKQRELVAVISNGGITNYPNSVKGRFTISRDNAKNTVYLQMNSLKPEDTAVYYCFYSGSYYYPTDVHEYDYWGQGTQVTVSS and give its measured EC50.
Marked response: 1.4
